- PROTOCOL_NOTES: gradient 5% acetonitrile 3 min, to 50% in 2 min, to 85% in 15 min, held 3 min, 100 µL/min
- STUDY_CONDITIONS: column: Zorbax Extend-C18 2.1 x 50 mm; eluents: water / acetonitrile, 0.1% formic acid
ENDPOINT_NAME: RP-LC retention time (s)

O=C1C(N2CCN(S(=O)(=O)c3ccc(Cl)s3)CC2)CCN1Cc1ccccn1 (stereo not drawn)    613
CCOC(=O)C1CCC(CNC(=O)N2CCC(c3nc4ccncc4n3C)C2)CC1 (stereo not drawn)    548
CC(=O)N1c2ccc(S(=O)(=O)N3CCCCC3)cc2CC1C(=O)N1CCC(C)CC1 (stereo not drawn)    881
CCOc1ccc(C(=O)N2CCC3(CC2)NC(=O)c2cccc(Cl)c2N3)cc1    790
COc1cc(CNCCc2ccc(S(N)(=O)=O)cc2)ccc1Oc1nnnn1-c1ccccc1    672
CCOC(=O)c1noc2ncnc(NCCc3ccc(OCC)cc3)c12    1060
CN1C(=O)c2cc(S(=O)(=O)NCc3ccc(F)cc3)ccc2Oc2cccnc21    951
O=C(NCC(c1cccs1)S(=O)(=O)c1cccs1)NC1CCCCC1 (stereo not drawn)    790

a: CCC(Oc1ccc(=O)n(-c2ccc(F)cc2)n1)C(=O)NCc1ccc2c(c1)OCO2 (stereo not drawn)
b: Cc1cc(C)c(S(=O)(=O)N2CCCC2c2nc(-c3ccc(Cl)cc3)no2)cc1C (stereo not drawn)
In the pair a and b , the larger recorded RP-LC retention time belongs to which? When you have decided, please share the label of that item. b

---

- PROTOCOL_NOTES: gradient 5% acetonitrile 3 min, to 50% in 2 min, to 85% in 15 min, held 3 min, 100 µL/min
- STUDY_CONDITIONS: column: Zorbax Extend-C18 2.1 x 50 mm; eluents: water / acetonitrile, 0.1% formic acid
ENDPOINT_NAME: RP-LC retention time (s)

I: CCOC(=O)C(C)Sc1ccc(NC(=O)c2ccco2)nn1 (centres undefined)
II: Cc1ccccc1N1CCN(S(=O)(=O)c2cc(-c3nnc(C4CCC4)o3)co2)CC1
Please compare: I and II . Report which one has the smaller RP-LC retention time value. Respond using the label that marks the chosen record. I
(I: 759 s, II: 1140 s)

P: CCOCCCNC(=O)C1CCN(c2cc(=O)n(C)c(=O)n2CC)CC1
Q: Cc1cccc(-c2noc(CN3N=NC4C(=O)N(c5ccc(C(C)C)cc5)C(=O)C43)n2)c1 (centres undefined)
Would you kindly point out which of P and Q has the smaller RP-LC retention time figure? Identify your selection by its label. P

---

- PROTOCOL_NOTES: gradient 5% acetonitrile 3 min, to 50% in 2 min, to 85% in 15 min, held 3 min, 100 µL/min
- STUDY_CONDITIONS: column: Zorbax Extend-C18 2.1 x 50 mm; eluents: water / acetonitrile, 0.1% formic acid
ENDPOINT_NAME: RP-LC retention time (s)

CCn1cc(-c2nc(CC(=O)NCc3ccccc3F)cs2)c2cccnc21    843
CC(=O)N1c2ccc(S(=O)(=O)N3CCCCC3)cc2CC1C(=O)N1CCCC1 (stereo not given)    743
CN1C2CCC1CC(OC(=O)C(O)c1ccccc1)C2 (stereo not given)    794

I: O=C(NCC1CCCO1)c1ccc2c(c1)NC(=O)C1CCC(=O)N21 (stereo not given)
II: Cc1cccc2c(C(N)=O)cc(-c3ccccc3)nc12
Returns: the argument ( I or II ) having the larger RP-LC retention time. Respond using the label that marks the chosen record. II

---

- PROTOCOL_NOTES: gradient 5% acetonitrile 3 min, to 50% in 2 min, to 85% in 15 min, held 3 min, 100 µL/min
- STUDY_CONDITIONS: column: Zorbax Extend-C18 2.1 x 50 mm; eluents: water / acetonitrile, 0.1% formic acid
ENDPOINT_NAME: RP-LC retention time (s)

The following compounds have reported results that may help.
Cn1cc(CCNC(=O)Cc2ccccc2Cl)c2cccnc21    700
Cc1cc(N2CCN(C(=O)Nc3ccc(C)c(Cl)c3)CC2)nc(N2CCOCC2)n1    688
O=C(c1ccc(F)cc1)N1CCN(c2ccc(N3CCCC3)nn2)CC1    604

a: Cc1ccc2[nH]c(=O)c(CCC(=O)NCc3cccnc3)cc2c1
b: Cc1cc(C)cc(N2C(=O)CN(S(C)(=O)=O)CC2(C)C(=O)NCc2ccc(Cl)cc2)c1 (centres undefined)
Kindly identify the item with the lower RP-LC retention time figure among these two: a and b Kindly state the label of the option you pick. a
(a: 584 s, b: 919 s)

a: CCOCCCNC(=O)c1nnc(-c2ccc(S(=O)(=O)N3CCCC3)cc2)o1
b: CCCc1ccc(S(=O)(=O)N2CCCC2c2nc(-c3ccc(Cl)cc3)no2)cc1 (centres undefined)
Of a and b , which shows the smaller RP-LC retention time value? Respond with the label that goes with your answer. a
(a: 786 s, b: 1380 s)

I: Cc1nnc2cc(N3CCN(C(=O)Nc4ccc(F)cc4F)CC3)cnn12
II: COc1cc(NC(=O)Nc2nccn(-c3ccc(C(C)C)cc3)c2=O)cc(OC)c1
Would you kindly point out which of I and II has the smaller RP-LC retention time figure? Indicate your choice by writing its label. I
(I: 597 s, II: 1110 s)

---

- PROTOCOL_NOTES: gradient 5% acetonitrile 3 min, to 50% in 2 min, to 85% in 15 min, held 3 min, 100 µL/min
- STUDY_CONDITIONS: column: Zorbax Extend-C18 2.1 x 50 mm; eluents: water / acetonitrile, 0.1% formic acid
ENDPOINT_NAME: RP-LC retention time (s)

Worked examples, 3 molecules total:
CCCCCn1c(SCC(=O)OCC)nc2cc(C(=O)N3CCC(C(N)=O)CC3)ccc2c1=O    783
CC(C)C(=O)NC(Cc1ccccc1)c1nnc(N2CCSCC2)o1 (stereo not given)    738
Cc1nc(C)c(C(=O)N2CC[C@H](CO)[C@H](NC(=O)C3CC3)C2)s1    573

1: O=C(COc1ccccc1)Nc1cnc(N2CCCCCC2)nc1
2: Cc1noc(C)c1CN1CCC(NC(=O)Cc2ccc(F)cc2)C1 (stereo not given)
Sorting by RP-LC retention time in descending order, would 1 or 2 appear first? State your choice using its label. 1
(1: 941 s, 2: 597 s)

---

- PROTOCOL_NOTES: gradient 5% acetonitrile 3 min, to 50% in 2 min, to 85% in 15 min, held 3 min, 100 µL/min
- STUDY_CONDITIONS: column: Zorbax Extend-C18 2.1 x 50 mm; eluents: water / acetonitrile, 0.1% formic acid
ENDPOINT_NAME: RP-LC retention time (s)

Check out these entries, answers already filled in.
CCCN1CCC[C@H](c2cccc(O)c2)C1    588
Cc1ccc(Cn2c(=O)n(CCNC(=O)c3cccn3C)c3ncccc32)cc1    822
Nc1cc(C2CCN(C(=O)COc3ccccc3)CC2)no1    662

I: COc1ccc(N2CCN(C(=O)C3CCCN(S(=O)(=O)c4cn(C(C)C)cn4)C3)CC2)cc1 (stereo not given)
II: CCCc1nc(-c2ccccc2)oc1CC(=O)N1CCN(c2ccccc2F)CC1
Kindly identify the item with the lower RP-LC retention time figure among these two: I and II Please identify the chosen entry by its label. I

---

- PROTOCOL_NOTES: gradient 5% acetonitrile 3 min, to 50% in 2 min, to 85% in 15 min, held 3 min, 100 µL/min
- STUDY_CONDITIONS: column: Zorbax Extend-C18 2.1 x 50 mm; eluents: water / acetonitrile, 0.1% formic acid
ENDPOINT_NAME: RP-LC retention time (s)

Here are 6 compounds together with their reported answers.
CCOc1cccc(-c2noc(Cn3ccn4nc(-c5ccc(C)c(C)c5)cc4c3=O)n2)c1    1220
Cc1ccc(-c2nc3nc(C)cc(C)n3c2Nc2ccccc2C)cc1    782
CCOC(=O)N1CCN(C(=O)CN2C(=O)c3ccccc3S2(=O)=O)CC1    643
Cc1nc(-c2cccc(C(=O)N3CCN(c4nc5cccnc5o4)CC3)c2)no1    688
C(=C\c1ccccc1)/CN1CCN(CCOC(c2ccccc2)c2ccccc2)CC1    884
CC(C)c1ccc(S(=O)(=O)N2CCC(n3c(-c4ccco4)nc4cccnc43)C2)cc1 (centres undefined)    1060

P: O=C(CCCS(=O)(=O)c1ccc(F)cc1)Nc1cccc(Cl)c1Cl
Q: OC(COc1ccc(Cl)cc1Cl)CN1CCCC1 (centres undefined)
For the pair P and Q , which entry has the numerically smaller recorded RP-LC retention time? State your choice using its label. Q
(Q: 570 s, P: 850 s)

---

- PROTOCOL_NOTES: gradient 5% acetonitrile 3 min, to 50% in 2 min, to 85% in 15 min, held 3 min, 100 µL/min
- STUDY_CONDITIONS: column: Zorbax Extend-C18 2.1 x 50 mm; eluents: water / acetonitrile, 0.1% formic acid
ENDPOINT_NAME: RP-LC retention time (s)

Below are worked cases with known answers.
CC(C)CCNC(=O)C1(C)Cn2nc(C(=O)NCc3ccccc3F)cc2C(=O)N1C (stereo not given)    763
CC1CN2C=NC(N3CCN(C(=O)c4ccccc4)CC3)=CC2=N1 (stereo not given)    580
Cc1cccc(CNC(=O)c2ccc3c(c2)CC(=O)N3C)c1    742

1: CN1CCN(C(=O)C2CCCN(c3ncccc3-c3noc(C4CCC4)n3)C2)CC1 (stereo not given)
2: CCC(=C(c1ccccc1)c1ccc(OCCN(C)C)cc1)c1ccccc1
Lab note: record which item had the higher RP-LC retention time, 1 or 2 . Refer to your chosen item by its label in the answer. 2
(2: 1010 s, 1: 623 s)
